Test system: MS2 coat protein
METHOD NOTES: apparent KD of MS2 coat protein; designed switch direction (-1 OFF switch, 1 ON switch): 1; higher = weaker reporter binding
CONDITIONS: input ligand: microRNA oligo, concentration not stated
Tag: fulfilled if measured apparent KD of MS2 coat protein is not below 80 nM, not fulfilled if it is.

Use these answered entries as a reference point.
GAGGGCGAAAGCAACAUGAGGAUCACCCAUGUUGUCGAAAGGCAGGAUAUCCGGCGAAAGCAGAAGGAGAAGGGUCGAAAAGAA [AK SSNG3-V2-40] (Eterna round: R96, puzzle: Same State NG 3); not fulfilled
UGUUGUAUUACAGGAUAUCUAGUAUUAUUAUUUAGAGAAGGGUAUUCACAUGAGGAUCACCCAUGUAUAUACGAGGAAGUUGUG [JMF's solution 39] (Eterna round: R96, puzzle: Same State NG 1); not fulfilled
ACAAAGAACACAGGAUAUCGGAAAGGAAGUGUACGAGAAGGGUGGUCAACAGUACAUGAGGAUCACCCAUGUGGUGGAUGGCAA [PowerStrip SSNG 1.12] (Eterna round: R96, puzzle: Same State NG 1); not fulfilled
ACAUGAGAUCUAGGAUAUAUUGUACCUACAUGUGACAUGAGGAUCACCCAUGUGGUAAGUAUGACAUAGAAGGAGAAGAUAUGU [Equivalance 95 - Jieux - Same State NG 2] (Eterna round: R96, puzzle: Same State NG 2); not fulfilled
CUGAGCAAGCAAGGAUAUCACGUCGAUUAGACGUGAGAAGGUGCUCCUUACAUGAGGAUCACCCAUGUAUAACAUGAAGCUCAG [SSNG1/10-A2] (Eterna round: R96, puzzle: Same State NG 1); fulfilled
AGUCCAGCCUGAGCUGGACAAUAGCAUGUACAUGAGGAUCACCCAUGUCAUGUACAAGCUUUUUGCUCGUCUUAAAA [JL zipper 48] (Eterna round: R96, puzzle: Sensor for hsa-mir-208a); not fulfilled
UUUAGCGUUACAGGAUAUGGUGAGGAUUACCCACUAGAAGGGUAAACAUGUGCGUCGUACAUGAGGAUCACCCAUGUAGGGCGU (Eterna round: R96, puzzle: Same State NG 1); not fulfilled
AAACGGCCGAACGGAGGGCCACAUGAGGAUCACCCAUGUACAUAGGAUAUCACACCAACGAGGCGUGAGAAGGGUGAUUAAAAC [Teisedbe] (Eterna round: R96, puzzle: Same State NG 3); not fulfilled
AUUAUUAAUGCAGGAUAUGAUUAACAUGAGGAUCACCCAUGUGGUGUUGUGAGUAAGGAGAGUGAUCAGAAGGGCAUUUUUUGU [JMF's solution 16] (Eterna round: R96, puzzle: Same State NG 2); fulfilled
CGUUGGACAUCCAGCAAGACAUGAGGAUCACCCAUGUAGGCGCAGGAUAUGCGGGUUCGGUGCUCGCAGAAGGGUGAAGAAAAC [Araerar] (Eterna round: R96, puzzle: Same State NG 3); not fulfilled

Hi, just wondering whether GUUAAACAUGAGGAUCACCCAUGUCAAUGUAGUCGAGGAUAUGGGCAGCUAUGAGGCGUACUAGAAGGCGAAGAGU [Mat - Same State 1 - Mod of JL - D12] (Eterna round: R96, puzzle: Same State 1) shows apparent KD of MS2 coat protein of 80 nM or higher. fulfilled

Would you say ACUUGCCGCACAGGAUAUGGGUGCCUGUACAUGAGGAUCACCCAUGUUAAGGGACGGAUUACGAACCAGAAGGGUGAGGCGGGC [Tigeti] (Eterna round: R96, puzzle: Same State NG 2) shows apparent KD of MS2 coat protein at minimum 80 nM? fulfilled

Determine whether this sequence has apparent KD of MS2 coat protein no lower than 80 nM: UGAAUAGUCACAGGAUAUCAUGCGAAAAUUGCGUGAGAAGGGUGGGUGUUGUGCUCAAAGUGCUACAUGAGGAUCACCCAUGUU [SameState NG1 #41] (Eterna round: R96, puzzle: Same State NG 1) fulfilled

meta.source: the supplement of paper PMC9170038
